FYI, the data here is from patent EP0043274A2.

System: human plasma
Assay type: biochemical
Conditions: coded agents 0.5mg/ml; […]; control 43.38
reported_endpoint: PTT (s)
One number for each entry, in s.

# compound, PTT, s
rows = [
    ("O=S(=O)(O)CO [Sodium formaldehyde bisulfite]", 58.60),
    ("O=S(O)CO [SO2, Sodium formaldehyde sulfoxalate, reference compound]", 49.22),
    ("O=C(O)CC(S)C(=O)O (centres unmarked) [Example A2, Mercaptosuccinic acid, reference compound]", 48.70),
    ("O=C(O)/C(O)=C(/O)C(=O)O [Example A3, Dihydroxymaleic acid 2 H2O, reference compound]", 53.00),
]

# context switch: different compound, same PTT
// lookup PTT for O=S([O-])S(=O)(=O)[O-].[K+].[K+]
83.84

* * *

Tested on: human plasma
Assay type: biochemical
Settings: amine bisulfites; control plasma 12.8 / 13.1
reported_endpoint: PT REPLICATIONS 2
One number for each entry.

# molecule, PT REPLICATIONS 2
records = [
    ("CNC1CCCCC1 [N-METHYL CYCLOHEXYL AMINE]", 20.3),
]

Below is a list of molecules. For each, state its recorded PT REPLICATIONS 2.
1. NCCO [ETHANOL AMINE]
2. OCCNCCO [DIETHANOL AMINE]
3. CN(C)C1CCCCC1 [N,N-DIMETHYL CYCLOHEXYL AMINE]

1: 20.5; 2: 19.8; 3: 20.4
